Sourced from PubChem BioAssay AID1159580

# assay details: chemical genetic growth profiling, strain panel (AID 1159580);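 also: tested at 20 µM; growth read once vehicle control cultures reached saturation at 30 °C; 1 = growth at the plate median or of vehicle wells; lower values mean less growth of the strain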
# assay conditions: S. cerevisiae deletion strains, growth OD, locus YKL203C, strain TOR2, hits give low values
Out of some 5,500 compounds screened, about 2,000 (36%) were called active. Inconclusive results (about 18%) are left out. The list shows a part of the results.
Documented normalized growth across a set of compounds
observation type: normalized growth

{"smi": "N#C/C(=N/Nc1ccccc1)C(=O)c1ccccc1OC(F)(F)F", "reported value": "0.913 (inactive)"}
{"smi": "N/C(Cn1ccc(C(F)(F)F)n1)=N/OS(=O)(=O)c1cccc(Cl)c1Cl", "reported value": "1.06 (inactive)"}
{"smi": "Cc1cc(C)cc(Sc2ccc3nnc(-c4ccccc4)n3n2)c1", "reported value": "1.06 (inactive)"}
{"smi": "N#C/C(=N/Nc1ccc(F)cc1)S(=O)(=O)c1ccc(Cl)cc1", "reported value": "0.99 (inactive)"}
{"smi": "O=C(/C=C/c1ccc2c(c1)OCO2)Nc1ccc(Br)cc1", "reported value": "1.03 (inactive)"}
{"smi": "CC(=O)/C(C#N)=N\\Nc1ccc(F)cc1", "reported value": "0.126 (active)"}
{"smi": "Cc1ccc(S(=O)(=O)NC(=O)Nc2ccc(Sc3ccccc3)nc2Sc2ccccc2)cc1", "reported value": "1.04 (inactive)"}
{"smi": "N#C/C(=N/Nc1ccc(F)cc1)C(=O)c1ccccc1", "reported value": "0.883 (inactive)"}
{"smi": "Cc1nn(C)c(C(=O)Sc2ccc(OC(F)(F)F)cc2)c1[N+](=O)[O-]", "reported value": "1.13 (inactive)"}
{"smi": "CCOC(=O)c1ccc2nc(N=CNO)sc2c1", "reported value": "0.958 (inactive)"}
{"smi": "CC(C)(C)c1ccc(N/N=C(\\C#N)C(N)=O)cc1", "reported value": "0.112 (active)"}
